The measurements presented in this section are drawn from patent US7964734B2.

# PROTOCOL DETAILS: Intrinsic dissolution rate, Rotation Disc Method (USP 1087)
# Assay type: physicochemical
# EXPERIMENTAL CONDITIONS: Phosphate, pH 4, chloride 0.1 M, 37° C., 100 rpm, average of two measurements
Structures can show the parent of a compound that is named as a salt.
OBSERVABLE: intrinsic dissolution rate (IDR) (μmol/min * cm^2)

Reference set, count: 3
Which intrinsic dissolution rate (IDR) is reported for this compound? O=C(O)CC(=O)O.O=C(c1ccc(OCCN2CCCCC2)cc1)c1c(-c2ccc(O)cc2)sc2cc(O)ccc12 [Malonate]
0.0136

I have this compound here, CC(O)C(=O)O.O=C(c1ccc(OCCN2CCCCC2)cc1)c1c(-c2ccc(O)cc2)sc2cc(O)ccc12 [DL-lactate hemihydrate] , and I need its recorded intrinsic dissolution rate (IDR).
0.0212

Item under review: O=C(c1ccc(OCCN2CCCCC2)cc1)c1c(-c2ccc(O)cc2)sc2cc(O)ccc12 [Hydrochloride, raloxifene hydrochloride, reference compound] . Reported intrinsic dissolution rate (IDR)?
0.0022

A. C[C@H](O)C(=O)O.O=C(c1ccc(OCCN2CCCCC2)cc1)c1c(-c2ccc(O)cc2)sc2cc(O)ccc12 [L-lactate hemihydrate]
B. C[C@H](O)C(=O)O.O=C(c1ccc(OCCN2CCCCC2)cc1)c1c(-c2ccc(O)cc2)sc2cc(O)ccc12 [L-Lactate ¼-hydrate]
Compare reported intrinsic dissolution rate (IDR) values for A and B . Which is lower? Response format: the label of the selected entry.
A
